# measurement description: GSK_TCMDC: Inhibition Frequency Index (IFI). The number of non-kinase HTS assays where a compound showed > 50 % inhibition, expressed as a percentage of the number of such assays in which the compound was tested
# Type: functional
Over roughly 13,000 compounds, “IFI” has its median near 4; the highest 2% begin near 17. The sample as a whole holds a higher share of the highest values than the screen did.
Each entry below carries its reported IFI.
Respond numerically; units are % and should not be typed.

// below: answered molecules
CCn1c(-c2nonc2N)nc2c(-c3cccc(NC(=O)Nc4ccc(C(F)(F)F)cc4)c3)ncc(OCCCN)c21; 19.1
NC1=NC2(CCCCC2)N(OCCCCCCC2CCCCC2)C(N)=N1; 27.6

# input Tell us which IFI value is on record for CCC(C)Oc1ccc(CCCON2C(N)=NC(N)=NC2(C)C)cc1 (centres undefined)
# output 5.76

# input Tell us which IFI value is on record for CCn1c(-c2nonc2N)nc2c(-c3cccc(NC(=O)Nc4ccc(Cl)cc4)c3)ncc(OCCCN)c21
# output 19.3

====

# measurement description: GSK_TCMDC: Inhibition Frequency Index (IFI). The number of non-kinase HTS assays where a compound showed > 50 % inhibition, expressed as a percentage of the number of such assays in which the compound was tested
# Format: functional
Whole data set: some 13,000 compounds, median “IFI” near 4, cut for the highest 2% near 17. Only a selection was taken, and the highest values are over-represented in it overall.
Define the label as Y when IFI is strictly less than 10% and as N in all remaining cases.

Below, 4 compounds whose answers are already recorded.
O=C(Nc1ccc(Cl)c(Cl)c1)Nc1ccccc1N1CCNCC1; N
COc1ccccc1/C=C/C(=O)NC1CCC(CCN2CCc3ccc(-c4cc(C)no4)cc3CC2)CC1 (configuration not stated); Y
Cc1ccccc1C1CCN(C2CCC(NC(=O)c3cc4cc(C(C)C)ccc4[nH]3)CC2)CC1 (configuration not stated); N
Cc1cccc2nc(-c3cccc(-c4cccc(NC(=O)Cc5c[nH]cn5)c4)c3)[nH]c12; Y

# input Decide: IFI of COCCN1CCN(Cc2ccc(-c3ccc(-c4nc5cccc(C)c5[nH]4)s3)cc2)CC1 strictly below 10%?
# output Y

# input Decide: IFI of CC(C)C[C@H](NC(=O)c1cc2ccccc2s1)C(=O)N[C@H]1CCN(Cc2ccc(OC3CCN(C)C3)c(Cl)c2)C1 (some centres not stated) strictly below 10%?
# output Y

# input Decide: IFI of O=C(Nc1ccccc1)N(Cc1ccc(-c2ccc(CNC3CCCC3)cc2)cc1)C1CCN(Cc2ccccc2)CC1 strictly below 10%?
# output Y

# input Decide: IFI of Cc1ccc(/C=C/C(=O)NC2CCC(N3CCC(c4ccccc4C)CC3)CC2)cc1F (configuration not stated) strictly below 10%?
# output N

====

# measurement description: GSK_TCMDC: Inhibition Frequency Index (IFI). The number of non-kinase HTS assays where a compound showed > 50 % inhibition, expressed as a percentage of the number of such assays in which the compound was tested
# Assay type: functional
Whole data set: some 13,000 compounds, median “IFI” near 4, cut for the highest 2% near 17. Only a selection was taken, and the highest values are over-represented in it overall.
Each entry below carries its reported IFI.
Respond with a number, then the unit of measure.

// below: answered compounds
CCN(CC)CCCNC(=O)/C(=C/C=C/c1cc2cc(Cl)c(Cl)cc2[nH]1)OC; 8.46%
COc1ccc2c(=NN=Cc3ccccc3Cl)cc(C)[nH]c2c1; 3.65%
CC(C)(C)c1ccc(CN2CCC(NC(=O)c3ccc(-c4cccc(F)c4)s3)CC2)cc1; 12.5%

# input Tell us which IFI value is on record for CCc1c(C)nc(-n2nc(C)cc2NC(=O)C(CC)c2ccccc2)[nH]c1=O (centres undefined)
# output 11.8%

# input Tell us which IFI value is on record for O=C(Nc1cccc(-c2cccc(-c3nc4cc(C(F)(F)F)ccc4[nH]3)c2)c1)c1cccnc1
# output 4.59%

# input Tell us which IFI value is on record for OC(CNc1ccnc(Nc2ccc(Cl)cc2)n1)c1cccc(C(F)(F)F)c1 (centres undefined)
# output 16.3%

# input Tell us which IFI value is on record for Cc1ccc(Nc2nccc(NCC(O)c3ccc(C(F)(F)F)cc3)n2)cc1 (centres undefined)
# output 9.18%

# input Tell us which IFI value is on record for Nc1nccc2ccc(-c3ccsc3)cc12
# output 10.1%

# input Tell us which IFI value is on record for O=S(=O)(Nc1cc2c(cc1OCCCN1CCCCC1)CCNCC2)c1ccc(-c2ccc(Cl)cc2)cc1
# output 11.9%

# input Tell us which IFI value is on record for CCOc1cc(C(=O)NC2CCN(Cc3ccccc3)C2)ccc1-c1nc2cc(Cl)ccc2[nH]1 (centres undefined)
# output 2.14%

# input Tell us which IFI value is on record for CCCn1c(O)nnc1SCC(=O)Nc1cc(C(F)(F)F)ccc1Cl
# output 1.57%

====

# measurement description: GSK_TCMDC: Inhibition Frequency Index (IFI). The number of non-kinase HTS assays where a compound showed > 50 % inhibition, expressed as a percentage of the number of such assays in which the compound was tested
# Assay type: functional
Whole data set: some 13,000 compounds, median “IFI” near 4, cut for the highest 2% near 17. The full list was thinned out, with the highest values kept by preference.
measure: IFI (%)
Respond numerically; units are % and should not be typed.

// below: answered compounds
COc1ccc2cc(-c3nc(-c4c(Cl)cccc4Cl)[nH]c3-c3ccnc(NCCC4CCCN4C)c3)ccc2c1 (stereo unspecified); 11.3
O=C(Nc1ccc(Br)cc1)c1cc(Br)ccc1NS(=O)(=O)c1ccc(C(F)(F)F)cc1; 25
Cn1cc(-c2ccnc3[nH]c(-c4cccc(CNC5CCC(O)CC5)c4)cc23)cn1 (stereo unspecified); 8.11
CCCOc1ccc2ccccc2c1CNCCCCCCNCc1c(OCCC)ccc2ccccc12; 17.6

Would you kindly look at the next entry?
# input Tell us which IFI value is on record for Cc1ccc(C)c(S(=O)(=O)Nc2ccc(Br)cc2C(=O)Nc2cccc(C(F)(F)F)c2)c1
# output 21.1

====

# measurement description: GSK_TCMDC: Inhibition Frequency Index (IFI). The number of non-kinase HTS assays where a compound showed > 50 % inhibition, expressed as a percentage of the number of such assays in which the compound was tested
# Type: functional
Whole data set: some 13,000 compounds, median “IFI” near 4, cut for the highest 2% near 17. This is one part of a sample in which the highest values are shown more often than they occur.
measure: IFI (%)
Respond numerically; units are % and should not be typed.

// below: answered molecules
COc1cc2ccccc2c(OC)c1CNCCCCCCNCc1c(OC)cc2ccccc2c1OC; 12.9
O=C(Nc1cccc(C(F)(F)F)c1)c1ccc(S(=O)(=O)NCC2CCCN(CC3CCCCC3)C2)cc1 (centres undefined); 5.1

# input Tell us which IFI value is on record for Cc1nc(-c2cccc(Nc3nccc(NCC(O)c4ccccc4C(F)(F)F)n3)c2)cs1 (centres undefined)
# output 22.8

# input Tell us which IFI value is on record for Cc1nc(-c2cccc(Nc3nccc(NCC(O)c4ccccc4)n3)c2)cs1 (centres undefined)
# output 24.1

====

# measurement description: GSK_TCMDC: Inhibition Frequency Index (IFI). The number of non-kinase HTS assays where a compound showed > 50 % inhibition, expressed as a percentage of the number of such assays in which the compound was tested
# Assay type: functional
The full ranking holds about 13,000 compounds; the median of “IFI” is about 4, and the highest 2% start at about 17. For the sample, the highest values were picked, then their nearest neighbours and some compounds at random.
Each entry below carries its reported IFI.
Respond numerically; units are % and should not be typed.

// below: answered molecules
COc1ccc2c(CNCCCCCCNCc3c(OC)ccc4cc(OC)ccc34)c(OC)ccc2c1; 7.38
Cc1ccccc1CN1CCCN(Cc2ccc(C(=O)Nc3ccc(C(C)(C)C)cc3)cc2)CC1; 18.4
CC(C)(C)c1ccc(NC(=O)c2ccc(CN3CCCN(Cc4ccc(F)cc4)CC3)cc2)cc1; 15.6
O=C(Nc1ccc(Cl)cc1)c1ccc(CN2CCCN(Cc3cccc(Cl)c3)CC2)cc1; 8.66
COc1ccc(CNC(=O)c2cnc3c(O)cccc3c2Nc2cccc(NC(=O)c3ccc(F)cc3)c2)cc1; 6.98
COC(=O)c1ccc(-c2ccc(-c3cccnc3)cc2C)cc1; 21.7
C=CCN(C(=O)c1ccc(Cl)c([N+](=O)[O-])c1)c1nc(-c2ccccc2)cs1; 3.39
CN(C)CCNc1ncnc2c1[nH]c1ccc(Cl)cc12; 0

# input Tell us which IFI value is on record for CN(C)CCCNc1ncnc2c1[nH]c1ccc(F)cc12
# output 2.14

# input Tell us which IFI value is on record for CC(C)Oc1ccc2ccccc2c1CNCCCCCCNCc1c(OC(C)C)ccc2ccccc12
# output 18.5

# input Tell us which IFI value is on record for CCCCCCN1CCCN(Cc2ccc(C(=O)Nc3ccc(CC)cc3)cc2)CC1
# output 13.5

# input Tell us which IFI value is on record for CSc1ccc2ccccc2c1CNCCCCCCNCc1c(SC)ccc2ccccc12
# output 12.3

# input Tell us which IFI value is on record for OCCN1CCN(Cc2ccc(-c3cccc(-c4nc5cc(F)ccc5[nH]4)c3)cc2)CC1
# output 3.92
